Provenance of the data: patent US11530244B2

# target.entity: human PCSK9 / human LDLR EGFa domain interaction (Homo sapiens (Human))
# Sequence (Q8NBP7 153-692): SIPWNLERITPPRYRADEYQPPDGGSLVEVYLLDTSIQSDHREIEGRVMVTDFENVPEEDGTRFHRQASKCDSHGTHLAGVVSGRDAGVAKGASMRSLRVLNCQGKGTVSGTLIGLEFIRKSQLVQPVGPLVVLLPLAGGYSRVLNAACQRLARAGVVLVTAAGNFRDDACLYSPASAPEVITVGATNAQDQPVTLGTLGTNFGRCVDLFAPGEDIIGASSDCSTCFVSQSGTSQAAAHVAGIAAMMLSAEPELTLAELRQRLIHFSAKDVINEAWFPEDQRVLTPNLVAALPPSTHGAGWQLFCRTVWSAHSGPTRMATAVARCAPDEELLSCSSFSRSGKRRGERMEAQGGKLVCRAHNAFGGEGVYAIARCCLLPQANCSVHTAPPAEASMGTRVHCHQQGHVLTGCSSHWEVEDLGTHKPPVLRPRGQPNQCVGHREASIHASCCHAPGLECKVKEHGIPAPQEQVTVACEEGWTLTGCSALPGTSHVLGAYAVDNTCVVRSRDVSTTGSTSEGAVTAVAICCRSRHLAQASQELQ
# Sequence (Q8NBP7 31-152 partner): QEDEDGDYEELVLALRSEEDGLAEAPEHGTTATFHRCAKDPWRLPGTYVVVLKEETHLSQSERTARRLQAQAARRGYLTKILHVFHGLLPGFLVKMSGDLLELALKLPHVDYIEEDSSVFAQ
# measurement.protocol: TR-FRET assay of inhibition of the PCSK9-LDLR protein-protein interaction
# Assay type: binding
# run.conditions: TR-FRET, 20 nM human PCSK9, 20 nM human LDLR EGFa domain, 2 hours room temperature; read-out: IC50
pIC50: −log10 of the molar value. Starred links: 1 amine or outer side, 2 acyl side, 3 side chain; linkers in the order of their positions; H or OH if unused. Positions of bridges follow the written chain, without caps; N, C: chain ends. Non-standard residues stand in square brackets, D forms with d. Residues, ends and D or L forms follow the SMILES beside them. Trp(5-F) = N[C@@H](Cc1c[nH]c2ccc(F)cc12)C(=O)O; X30 = COc1ccc(C[C@H](N[*:1])C(=O)[*:2])cc1Cl; Tyr(3-Cl) = N[C@@H](Cc1ccc(O)c(Cl)c1)C(=O)O; X4 = O=C(CCSCc1cccc(CSCCN[*:1])c1)[*:2]; mXylylene = c1cc(C[*:1])cc(C[*:2])c1; αMeP = C[C@@]1(C(=O)O)CCCN1; Mpa = O=C(O)CCS
# maps each entry to its pIC50
observation.type: pIC50

{"columns": ["compound", "observation.type", "recorded.measurement"],
 "data": [
  ["C[C@@H]1NC(=O)CCSCc2cccc(c2)CSC[C@@H](C(N)=O)NC(=O)[C@]2(C)CCCN2C(=O)[C@H](Cc2ccc(O)cc2)NC(=O)[C@H](Cc2cnc[nH]2)NC(=O)[C@H](CC(=O)O)NC(=O)[C@H](Cc2c[nH]c3ccc(F)cc23)NC(=O)[C@H](Cc2c[nH]c3ccc(F)cc23)NC(=O)CNC1=O [Compound 308] ([Mpa]AG[Trp(5-F)][Trp(5-F)]DHY[αMeP]C-NH2; linker 1-10 via mXylylene)", "pIC50", "4.92 to 6.00"],
  ["C[C@H]1NC(=O)[C@H](CCCCN)NC(=O)CCSCc2cccc(c2)CSCCNC(=O)[C@]2(C)CCCN2C(=O)[C@H](Cc2ccc(O)c(Cl)c2)NC(=O)[C@H](Cc2cnc[nH]2)NC(=O)[C@H](CC(=O)O)NC(=O)[C@H](Cc2c[nH]c3ccc(F)cc23)NC(=O)[C@H](Cc2c[nH]c3ccc(F)cc23)NC1=O [Compound 246] (cyclo(DH[Tyr(3-Cl)][αMeP][X4]K[dA][Trp(5-F)][Trp(5-F)]))", "pIC50", "6.00 to 7.00"],
  ["COc1ccc(C[C@@H]2NC(=O)[C@H](Cc3c[nH]cn3)NC(=O)[C@H](CC(=O)O)NC(=O)[C@H](Cc3c[nH]c4ccc(F)cc34)NC(=O)[C@H](Cc3c[nH]c4ccc(F)cc34)NC(=O)[C@@H](C)NC(=O)[C@H](CCCCN)NC(=O)CCSCc3cccc(c3)CSCCNC(=O)[C@]3(C)CCCN3C2=O)cc1Cl [Compound 386] (cyclo(DH[X30][αMeP][X4]K[dA][Trp(5-F)][Trp(5-F)]))", "pIC50", "7.00 to 10.00"]
]}

* * *

# target.entity: PCSK9 (Homo sapiens (Human))
# Sequence (Q8NBP7 153-692): as the sequence (Q8NBP7 153-692) above
# measurement.protocol: PCSK9 Alexa FRET Standard assay (displacement of AlexaFluor647 tagged cyclic peptide Reagent A)
# Format: binding
# run.conditions: PCSK9 Alexa FRET Standard assay, 0.5 nM PCSK9, 20 nM AF cyclic peptide Reagent A; read-out: IC50
pIC50: −log10 of the molar value. Starred links: 1 amine or outer side, 2 acyl side, 3 side chain; linkers in the order of their positions; H or OH if unused. Positions of bridges follow the written chain, without caps; N, C: chain ends. Non-standard residues stand in square brackets, D forms with d. Residues, ends and D or L forms follow the SMILES beside them. ξ: configuration not given here. NHCH2(1,3-C6H4)CH2CO = O=C(Cc1cccc(CN[*:1])c1)[*:2]; Pro(cis-4-Ph) = O=C(O)[C@@H]1C[C@H](c2ccccc2)CN1; Trp(5-F) = N[C@@H](Cc1c[nH]c2ccc(F)cc12)C(=O)O; mXylylene = c1cc(C[*:1])cc(C[*:2])c1; β3hT = C[C@@H](O)[C@H](N)CC(=O)O; αMeP = C[C@@]1(C(=O)O)CCCN1; ξD = NC(CC(=O)O)C(=O)O; Aib = CC(C)(N)C(=O)O; Mpa = O=C(O)CCS

{"columns": ["compound", "pIC50"],
 "data": [
  ["NCCCC[C@@H]1NC(=O)CCSCc2cccc(c2)CSC[C@@H](C(N)=O)NC(=O)[C@@H]2C[C@H](c3ccccc3)CN2C(=O)[C@H](Cc2ccc(O)cc2)NC(=O)[C@H](Cc2cnc[nH]2)NC(=O)[C@H](CC(=O)O)NC(=O)[C@H](Cc2c[nH]c3ccc(F)cc23)NC(=O)[C@H](Cc2c[nH]c3ccc(F)cc23)NC(=O)CNC1=O [Compound 329] ([Mpa]KG[Trp(5-F)][Trp(5-F)]DHY[Pro(cis-4-Ph)]C-NH2; linker 1-10 via mXylylene)", "6.00 to 7.00"],
  ["C[C@@H](O)[C@H]1CC(=O)N[C@@H](Cc2ccc(O)cc2)C(=O)N2CCC[C@@]2(C)C(=O)N[C@H](C(N)=O)CSCc2cccc(c2)CSCCC(=O)N[C@@H](CCCCN)C(=O)NCC(=O)N[C@@H](Cc2c[nH]c3ccc(F)cc23)C(=O)N[C@@H](Cc2c[nH]c3ccc(F)cc23)C(=O)N2CCC[C@H]2C(=O)N1 [Compound 051] ([Mpa]KG[Trp(5-F)][Trp(5-F)]P[β3hT]Y[αMeP]C-NH2; linker 1-10 via mXylylene)", "7.00 to 9.96"],
  ["COc1ccc(C[C@@H]2NC(=O)[C@H](Cc3cnc[nH]3)NC(=O)[C@H](CC(=O)O)NC(=O)[C@H](Cc3c[nH]c4ccc(F)cc34)NC(=O)[C@H](Cc3c[nH]c4ccc(F)cc34)NC(=O)[C@@H](C)NC(=O)Cc3cccc(c3)CNC(=O)CC(C(=O)O)NC(=O)[C@]3(C)CCCN3C2=O)cc1 (some centres unmarked) [Compound 401] ([NHCH2(1,3-C6H4)CH2CO][dA][Trp(5-F)][Trp(5-F)]DHY(Me)[αMeP][ξD]-OH; lactam N-9)", "7.00 to 9.96"],
  ["COc1ccc(C[C@@H]2NC(=O)[C@H](Cc3cnc[nH]3)NC(=O)[C@H](CC(=O)O)NC(=O)[C@H](Cc3c[nH]c4cc(F)ccc34)NC(=O)[C@H](Cc3c[nH]c4ccc(F)cc34)NC(=O)[C@@H](C)NC(=O)[C@H](CCCCN)NC(=O)CCc3cn(nn3)-c3ccc(cc3)C[C@@H](C(N)=O)NC(=O)[C@]3(C)CCCN3C2=O)cc1", "4.30 to 4.68"],
  ["C[C@H]1NC(=O)[C@H](CCCCN)NC(=O)CCSCc2cccc(c2)CSC[C@@H](C(N)=O)NC(=O)[C@]2(C)CCCN2C(=O)[C@H](Cc2ccc(O)cc2)NC(=O)C(C)(C)NC(=O)[C@@H]2CCCN2C(=O)[C@H](Cc2c[nH]c3ccc(F)cc23)NC(=O)[C@H](Cc2c[nH]c3ccc(F)cc23)NC1=O [Compound 005] ([Mpa]K[dA][Trp(5-F)][Trp(5-F)]P[Aib]Y[αMeP]C-NH2; linker 1-10 via mXylylene)", "6.00 to 7.00"]
]}
